Values compiled from patent US20260295053A1.

# studyTarget: KRAS (G12D) (Homo sapiens, UniProt P01116, G12D)
# Construct: in-cell western with KRAS G12D antibody after 24 h
# Sequence (P01116 1-188 isoform P01116-2 G12D): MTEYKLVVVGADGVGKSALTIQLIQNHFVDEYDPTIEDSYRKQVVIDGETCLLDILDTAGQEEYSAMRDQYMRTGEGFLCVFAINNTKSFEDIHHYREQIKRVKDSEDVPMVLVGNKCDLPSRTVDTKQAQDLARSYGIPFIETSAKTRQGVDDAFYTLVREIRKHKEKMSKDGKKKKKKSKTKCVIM
# experimentDescription: KRAS (G12D) cellular degradation assay in AsPC-1 cells
# Assay type: cell-based
# experimentalConditions: 24 hours, antibody fluorescence (Odyssey CLX), DC50 half-maximal degradation concentration
In this section, each of the molecules is paired with its reported DC50.

The following molecules have reported results that may help.
- compoundStructure: "CCn1cc2c(C#C[C@H](CO)NC(=O)[C@@H]3C[C@@H](O)CN3C(=O)[C@H](C(C)C)n3cc(-c4ccc(COc5c(-c6c(C)c(F)cc7[nH]ncc67)c(C6CC6)cc6c(N7C[C@@H]8C[C@H]7CN8)nc(OC[C@H](C)OC)nc56)cc4)nn3)cccc2n1"
  studyTarget: "KRAS (G12D) (Homo sapiens, UniProt P01116, G12D)"
  DC50: "< 10 nM"
- compoundStructure: "CO[C@@H](C)COc1nc(N2C[C@@H]3C[C@H]2CN3)c2cc(C3CC3)c(-c3c(C)c(F)cc4[nH]ncc34)c(OCc3ccc(-c4cn([C@H](C(=O)N5C[C@H](O)C[C@H]5C(=O)N[C@H](C#Cc5ccccc5)CO)C(C)C)nn4)cc3)c2n1"
  studyTarget: "KRAS (G12D) (Homo sapiens, UniProt P01116, G12D)"
  DC50: "10 to 100 nM"
- compoundStructure: "CCn1nccc1-c1ccc([C@H](CO)NC(=O)[C@@H]2C[C@@H](O)CN2C(=O)[C@H](C(C)C)n2cc(-c3ccc(COc4c(-c5c(C)c(F)cc6[nH]ncc56)c(C5CC5)cc5c(N6CCCNCC6)nc(OC[C@@H]6CCCO6)nc45)cc3)nn2)cc1"
  studyTarget: "KRAS (G12D) (Homo sapiens, UniProt P01116, G12D)"
  DC50: "< 10 nM"
- compoundStructure: "CO[C@H]1C[C@H](Oc2nc(N3CCCNCC3)c3cc(C4CC4)c(-c4c(C)c(F)cc5[nH]ncc45)c(OCc4ccc(-c5cn([C@H](C(=O)N6C[C@H](O)C[C@H]6C(=O)N[C@@H](CO)c6ccc(-c7scnc7C)cc6)C(C)C)nn5)cc4)c3n2)C1"
  studyTarget: "KRAS (G12D) (Homo sapiens, UniProt P01116, G12D)"
  DC50: "< 10 nM"
- compoundStructure: "CO[C@@H](C)COc1nc(N2C[C@@H]3C[C@H]2CN3)c2cc(C3CC3)c(-c3c(C)c(F)cc4[nH]ncc34)c(OCc3ccc(-c4cn([C@H](C(=O)N5C[C@H](O)C[C@H]5C(=O)N[C@H](C#Cc5cccc6scnc56)CO)C(C)C)nn4)cc3)c2n1"
  studyTarget: "KRAS (G12D) (Homo sapiens, UniProt P01116, G12D)"
  DC50: "10 to 100 nM"

Record summary for "CCn1nccc1-c1ccc([C@@H](NC(=O)[C@@H]2C[C@@H](O)CN2C(=O)[C@H](C(C)C)n2cc(-c3ccc(COc4c(-c5c(C)c(F)cc6[nH]ncc56)c(C5CC5)cc5c(N6C[C@@H]7C[C@H]6CN7)nc(O[C@H]6C[C@H](OC)C6)nc45)cc3)nn2)[C@H](C)O)cc1F" : reported DC50 = < 10 nM

----------
# studyTarget: KRAS (G12D) (Homo sapiens, UniProt P01116, G12D)
# Construct: in-cell western with KRAS G12D antibody after 24 h
# experimentDescription: KRAS (G12D) cellular degradation assay in AsPC-1 cells
# Format: cell-based
# experimentalConditions: 24 hours, antibody fluorescence (Odyssey CLX), DC50 half-maximal degradation concentration
In this section, each of the compounds is paired with its reported DC50.

Record summary for CCn1nccc1-c1ccc([C@H](CO)NC(=O)[C@@H]2C[C@@H](O)CN2C(=O)[C@H](C(C)C)n2cc(-c3ccc(COc4c(-c5c(C)c(F)cc6[nH]ncc56)c(C5CC5)cc5c(N6C[C@@H]7C[C@H]6CN7)nc(OCC(F)(F)COC)nc45)cc3)nn2)cc1 [Example 47] : reported DC50 = < 10 nM

Record summary for CCn1nccc1-c1ccc([C@H](CO)NC(=O)[C@@H]2C[C@@H](O)CN2C(=O)[C@H](C(C)C)n2cc(-c3ccc(COc4c(-c5c(C)c(F)cc6[nH]ncc56)c(C5CC5)cc5c(N6C[C@@H]7C[C@H]6CN7)nc(OC[C@H](C)OC)nc45)c4c3CC4)nn2)cc1 [Example 31] : reported DC50 = 10 to 100 nM

----------
# Test system: AsPC-1 cells
# experimentDescription: AsPC-1 cell proliferation assay (CellTiter Glo)
# Assay type: cell-based
# experimentalConditions: Homo sapiens, ASPC1, 144 h, 6 days
measuredParameter: IC50

The following compounds have reported results that may help.
- compound: "CCn1nccc1-c1ccc([C@@H](NC(=O)[C@@H]2C[C@@H](O)CN2C(=O)[C@H](C(C)C)n2cc(-c3ccc(COc4c(-c5c(C)c(F)cc6[nH]ncc56)c(C5CC5)cc5c(N(C)[C@H]6CCNC6)nc(O[C@H]6C[C@H](OC)C6)nc45)cc3)nn2)[C@H](C)O)c2c1CC2 [Example 173]"
  studyTarget: "AsPC-1 cells"
  obsValue: "< 10 nM"
- compound: "CCn1nccc1-c1ccc([C@@H](NC(=O)[C@@H]2C[C@@H](O)CN2C(=O)[C@H](C(C)C)n2cc(-c3ccc(COc4c(-c5c(C)c(F)cc6[nH]ncc56)c(C5CC5)cc5c(N6C[C@@H]7C[C@H]6CN7)nc(O[C@H]6C[C@H](OC)C6)nc45)cc3)nn2)[C@H](C)O)cc1F [Example 195]"
  studyTarget: "AsPC-1 cells"
  obsValue: "< 10 nM"
- compound: "CCn1nccc1-c1ccc([C@@H](NC(=O)[C@@H]2C[C@@H](O)CN2C(=O)[C@H](C(C)C)n2cc(-c3ccc(COc4c(-c5c(C)c(F)cc6[nH]ncc56)c(C5CCC5)cc5c(N6C[C@@H]7C[C@H]6CN7)nc(OC[C@H](C)OC)nc45)cc3)nn2)[C@H](C)O)cc1 [Example 88]"
  studyTarget: "AsPC-1 cells"
  obsValue: "< 10 nM"

Now for another entry.
Record summary for CO[C@@H](C)COc1nc(N2C[C@@H]3C[C@H]2CN3)c2cc(C3CC3)c(-c3c(C)c(F)cc4[nH]ncc34)c(OCc3ccc(-c4cn([C@H](C(=O)N5C[C@H](O)C[C@H]5C(=O)N[C@H](c5ccc(S(F)(F)(F)(F)F)cc5)[C@H](C)O)C(C)C)nn4)cc3)c2n1 [Example 148] : reported IC50 = > 1000 nM

----------
# studyTarget: KRAS (G12D) (Homo sapiens, UniProt P01116, G12D)
# Construct: in-cell western with KRAS G12D antibody after 24 h
# experimentDescription: KRAS (G12D) cellular degradation assay in AsPC-1 cells
# Assay type: cell-based
# experimentalConditions: 24 hours, antibody fluorescence (Odyssey CLX), DC50 half-maximal degradation concentration
measuredParameter: DC50

Record summary for "CCn1nccc1-c1ccc([C@H](CO)NC(=O)[C@@H]2C[C@@H](O)CN2C(=O)[C@H](C(C)C)n2cc(-c3ccc(COc4c(-c5c(C)c(F)cc6[nH]ncc56)c(C5CC5)cc5c(N6CCCNCC6)nc(OC[C@H](C)OC)nc45)cc3)nn2)c2c1CC2" : reported DC50 = < 10 nM

Record summary for "CCn1nccc1-c1ccc([C@H](CO)NC(=O)[C@@H]2C[C@@H](O)CN2C(=O)[C@H](C(C)C)n2cc(-c3ccc(COc4c(-c5c(C)c(F)cc6[nH]ncc56)c(C5CC5)cc5c(N6CCCNCC6)nc(OC[C@H](C)OC)nc45)cc3)nn2)cc1" : reported DC50 = < 10 nM

Record summary for "CCn1nccc1-c1ccc([C@H](CO)NC(=O)[C@@H]2C[C@@H](O)CN2C(=O)[C@H](C(C)C)n2cc(-c3ccc(COc4c(-c5c(C)c(F)cc6[nH]ncc56)c(C5CC5)cc5c(N6C[C@@H]7C[C@H]6CN7)nc(OC[C@H](C)OC)nc45)cc3Cl)nn2)cc1" : reported DC50 = 10 to 100 nM

Record summary for "CO[C@@H](C)COc1nc(N2CCCNCC2)c2cc(C3CC3)c(-c3c(C)c(F)cc4[nH]ncc34)c(OCc3ccc(-c4cn([C@H](C(=O)N5C[C@H](O)C[C@H]5C(=O)N[C@H](CO)c5ccc(-c6scnc6C)c6c5CC6)C(C)C)nn4)cc3)c2n1" : reported DC50 = 100 to 1000 nM

Record summary for "CCn1nccc1-c1ccc([C@H](CO)NC(=O)[C@@H]2C[C@@H](O)CN2C(=O)[C@H](C(C)C)n2cc(-c3ccc(COc4c(-c5c(C)c(F)cc6[nH]ncc56)c(C5CC5)cc5c(N6CCCOCC6)nc(OC[C@H](C)OC)nc45)cc3)nn2)cc1" : reported DC50 = < 10 nM

Record summary for "CCn1nccc1-c1ccc([C@H](CO)NC(=O)[C@@H]2C[C@@H](O)CN2C(=O)[C@H](C(C)C)n2cc(-c3ccc(COc4c(-c5c(C)c(F)cc6[nH]ncc56)c(C5CC5)cc5c(N6C[C@@H]7C[C@H]6CN7)nc(OCC6(C(F)F)CC6)nc45)cc3)nn2)cc1" : reported DC50 = < 10 nM

Record summary for Cc1ncsc1-c1ccc([C@@H](NC(=O)[C@@H]2C[C@@H](O)CN2C(=O)[C@H](C(C)C)n2cc(-c3ccc(COc4c(-c5c(C)c(F)cc6[nH]ncc56)c(C5CC5)cc5c(N6C[C@@H]7C[C@H]6CN7)nc(OC6CC7COCC7C6)nc45)cc3)nn2)[C@H](C)O)cc1 (some centres unmarked) : reported DC50 = < 10 nM

Record summary for "CCn1nccc1-c1ccc([C@H](CO)NC(=O)[C@@H]2C[C@@H](O)CN2C(=O)[C@H](C(C)C)n2cc(-c3ccc(COc4c(-c5c(C)c(F)cc6[nH]ncc56)c(C5CC5)cc5c(N6C[C@@H]7C[C@H]6CN7)nc(N6CCC(OC)CC6)nc45)cc3)nn2)cc1" : reported DC50 = < 10 nM
